- measured_target: Phosphatidylinositol 4,5-bisphosphate 3-kinase catalytic subunit gamma isoform (Homo sapiens) (UniProt P48736)
- Sequence (P48736 whole entry, looked up, canonical isoform): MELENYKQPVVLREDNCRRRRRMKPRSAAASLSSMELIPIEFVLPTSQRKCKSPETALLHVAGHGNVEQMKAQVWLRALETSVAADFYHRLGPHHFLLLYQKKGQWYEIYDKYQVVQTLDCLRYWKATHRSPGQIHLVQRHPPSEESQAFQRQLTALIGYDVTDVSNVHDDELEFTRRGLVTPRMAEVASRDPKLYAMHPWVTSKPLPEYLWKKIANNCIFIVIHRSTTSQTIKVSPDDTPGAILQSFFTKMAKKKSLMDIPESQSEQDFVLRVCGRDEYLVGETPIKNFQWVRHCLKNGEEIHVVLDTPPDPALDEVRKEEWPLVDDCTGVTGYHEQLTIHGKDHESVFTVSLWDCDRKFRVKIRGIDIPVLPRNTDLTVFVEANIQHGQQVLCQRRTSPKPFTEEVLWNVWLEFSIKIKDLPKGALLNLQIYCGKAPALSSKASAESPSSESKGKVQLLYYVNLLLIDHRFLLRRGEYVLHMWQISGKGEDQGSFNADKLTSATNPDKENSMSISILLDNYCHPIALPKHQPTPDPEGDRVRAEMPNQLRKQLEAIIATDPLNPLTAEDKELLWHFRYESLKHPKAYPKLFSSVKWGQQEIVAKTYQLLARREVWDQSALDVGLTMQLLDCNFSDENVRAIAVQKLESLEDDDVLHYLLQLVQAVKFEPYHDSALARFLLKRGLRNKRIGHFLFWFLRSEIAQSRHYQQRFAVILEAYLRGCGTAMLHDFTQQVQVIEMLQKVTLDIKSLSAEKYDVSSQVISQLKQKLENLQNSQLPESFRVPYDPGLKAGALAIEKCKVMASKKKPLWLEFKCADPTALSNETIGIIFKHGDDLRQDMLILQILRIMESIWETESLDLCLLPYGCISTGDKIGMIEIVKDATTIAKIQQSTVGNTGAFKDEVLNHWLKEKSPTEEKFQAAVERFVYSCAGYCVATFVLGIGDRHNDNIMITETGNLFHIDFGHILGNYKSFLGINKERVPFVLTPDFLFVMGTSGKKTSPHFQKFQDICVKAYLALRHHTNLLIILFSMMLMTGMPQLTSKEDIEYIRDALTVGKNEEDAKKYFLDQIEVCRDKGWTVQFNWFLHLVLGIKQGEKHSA
- protocol_description: Inhibition of PI3Kgamma in human Raji cells assessed as inhibition of cell viability at 100 nM after 72 hrs by CellTiter-Glo luminescence assay
- Assay type: cell-based
Activity calls are given as the source filed them. The calls are words filed in the database; no cut-off is given here.
Select the correct class. Options are active, inactive and nothing else.

Examples with answers:
molecule | class_assignment
COC(=O)[C@@]12OC[C@]34[C@H]([C@@H](O)[C@@H]1O)[C@@]1(C)CC(=O)C(OC(=O)C[C@@H](N)C5CC5)=C(C)[C@@H]1C[C@H]3OC(=O)[C@H](OC(=O)C=C(C)C)[C@@H]24 | inactive
COC(=O)[C@@]12OC[C@]34[C@H]([C@@H](O)[C@@H]1O)[C@@]1(C)CC(=O)C(OC(=O)[C@H](CC(C)C)NC(=O)OC(C)(C)C)=C(C)[C@@H]1C[C@H]3OC(=O)[C@H](OC(=O)C=C(C)C)[C@@H]24 | inactive

Lab log entry: COC(=O)[C@@]12OC[C@]34[C@H]([C@@H](O)[C@@H]1O)[C@@]1(C)CC(=O)C(OC(=O)C[C@H](C)NS(C)(=O)=O)=C(C)[C@@H]1C[C@H]3OC(=O)[C@H](OC(=O)C=C(C)C)[C@@H]24 — outcome as called in the assay?
inactive

Lab log entry: COC(=O)[C@@]12OC[C@]34[C@H]([C@@H](O)[C@@H]1O)[C@@]1(C)CC(=O)C(OC(=O)C[C@H](C)N)=C(C)[C@@H]1C[C@H]3OC(=O)[C@H](OC(=O)C=C(C)C)[C@@H]24 — outcome as called in the assay?
active
